# Test system: RS4-11 cells
# assay.overview: Cell viability assay (CellTiter-Glo), RS4-11
# Assay type: cell-based
# condition: Homo sapiens, 72 h, 3 days, read-out: RS4-11 (CC50 code)
Give measured CC50 for each item. Keep answers brief.

Known CC50 results, listed for orientation:
> print(dat)
                    structure.smiles.string  recorded.value
1  CN(C)CCNC(=O)c1cccc(CN(C(=O)c2cc(-c3cc4c(cc3C(=O)N3Cc5ccccc5C[C@H]3CN3CCOCC3)OCO4)n3c2CCCC3)c2ccc(O)cc2)c1        > 200 nM
2  O=C(c1cc(-c2cc3c(cc2C(=O)N2Cc4ccccc4C[C@H]2CN2CCOCC2)OCO3)n2c1CCCC2)N(Cc1c(F)cccc1F)c1ccc(O)cc1        > 200 nM
3  Cc1ccccc1CN(C(=O)c1cc(-c2cc3c(cc2C(=O)N2Cc4ccccc4C[C@H]2CN2CCOCC2)OCO3)n2c1CCCC2)c1ccc(O)cc1        ≤ 100 nM
4  CN(C)CCNC(=O)c1ccc(CN(C(=O)c2cc(-c3cc4c(cc3C(=O)N3Cc5ccccc5C[C@H]3CN3CCOCC3)OCO4)n3c2CCCC3)c2ccc(O)cc2)cc1        ≤ 100 nM
5  CN1CCN(C(=O)c2ccc(CN(C(=O)c3cc(-c4cc5c(cc4C(=O)N4Cc6ccccc6C[C@H]4CN4CCOCC4)OCO5)n4c3CCCC4)c3ccc(O)cc3)cc2)CC1        ≤ 100 nM

Hey, can you go through the list below and give me CC50 for every item?
1. O=C(c1cc(-c2cc3c(cc2C(=O)N2Cc4ccccc4C[C@H]2CN2CCOCC2)OCO3)n2c1CCCC2)N(Cc1ccccc1)c1ccc(O)cc1
2. O=C(c1cc(-c2cc3c(cc2C(=O)N2Cc4ccccc4C[C@H]2CN2CCOCC2)OCO3)n2c1CCCC2)N(Cc1cccc(F)c1)c1ccc(O)cc1
3. O=C(c1cc(-c2cc3c(cc2C(=O)N2Cc4ccccc4C[C@H]2CN2CCOCC2)OCO3)n2c1CCCC2)N(Cc1c(Cl)ccc(F)c1F)c1ccc(O)cc1
4. Cc1c(CN(C(=O)c2cc(-c3cc4c(cc3C(=O)N3Cc5ccccc5C[C@H]3CN3CCOCC3)OCO4)n3c2CCCC3)c2ccc(O)cc2)cccc1[N+](=O)[O-]
5. COc1c(C)cnc(CN(C(=O)c2cc(-c3cc4c(cc3C(=O)N3Cc5ccccc5C[C@H]3CN3CCOCC3)OCO4)n3c2CCCC3)c2ccc(O)cc2)c1C

Result:
["100 to 200 nM", "100 to 200 nM", "> 200 nM", "> 200 nM", "> 200 nM"]

Q: Requested field: CC50. Item: `Cc1cccc(Cl)c1CN(C(=O)c1cc(-c2cc3c(cc2C(=O)N2Cc4ccccc4C[C@H]2CN2CCOCC2)OCO3)n2c1CCCC2)c1ccc(O)cc1`
Result: > 200 nM

Just for reference, patent US11697650B2 is where these values come from.
